B1: library; a variant is named by its letters at N, in order (parent)
chain: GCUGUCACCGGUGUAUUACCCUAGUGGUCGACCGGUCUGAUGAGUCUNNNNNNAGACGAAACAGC

- Variants of: B1
- Method description: normalized RNA/DNA level without ligand (relative to sTRSVctl = 100) (log10 (% of sTRSVctl)); ligand: hypoxanthine (xanthine aptamer); higher = less ribozyme self-cleavage, higher mRNA level
- Test settings: HEK293T, reporter: mCherry (pCS4076), ligand present: no
variants and their reported normalized RNA/DNA level without ligand (log10)

{"Mutation label": "ACAAUG", "Measured": 1.56}
{"Mutation label": "ACUGUG", "Measured": 1.42}
{"Mutation label": "CAGGCU", "Measured": 1.92}
{"Mutation label": "UGCGGG", "Measured": 1.75}
{"Mutation label": "UCCACC", "Measured": 1.93}
{"Mutation label": "GCUAGA", "Measured": 1.71}
{"Mutation label": "AUAAAU", "Measured": 1.76}
{"Mutation label": "UAGCCU", "Measured": 1.95}

Query string: Give its normalized RNA/DNA level without ligand (log10) value. Item: CCGUUU
Result string: 1.86
